# test-protocol: Pharmacokinetics of intraperitoneal or intravenous injection in CD1 mice
# Assay type: in vivo
# condition: male, CD1, mouse, plasma, ip, 10 mg/kg, IP 10 mg/kg, CD1 mice plasma, 0.5 h; read-out: Conc. (ng/mL) Mouse 1
For each record, check the reported concentration at 0.5 h: if it is below 700 ng/mL write yes (1), else write no (0).

Example cases with answers are listed next.
Query: Is it true that concentration at 0.5 h reported for Cc1ncsc1-c1ccc(CNC(=O)[C@@H]2C[C@@H](O)CN2C(=O)[C@@H](NC(=O)COCCOc2ccc(Nc3ncc(C(F)(F)F)c(NCc4cccc(N(C)S(C)(=O)=O)c4)n3)cc2)C(C)(C)C)cc1 is less than 700 ng/mL?
Result: yes (1)

Query: Is it true that concentration at 0.5 h reported for Cc1ncsc1-c1ccc(CNC(=O)[C@@H]2C[C@@H](O)CN2C(=O)[C@@H](NC(=O)CCOCCCOc2ccc(Nc3ncc(C(F)(F)F)c(NCc4cccc(N(C)S(C)(=O)=O)c4)n3)cc2)C(C)(C)C)cc1 is less than 700 ng/mL?
Result: no (0)

Query: Is it true that concentration at 0.5 h reported for Cc1ncsc1-c1ccc(CNC(=O)[C@@H]2C[C@@H](O)CN2C(=O)[C@@H](NC(=O)COCCCOc2ccc(Nc3ncc(C(F)(F)F)c(NCc4cccc(N(C)S(C)(=O)=O)c4)n3)cc2)C(C)(C)C)cc1 is less than 700 ng/mL?
Result: no (0)

Query: Is it true that concentration at 0.5 h reported for Cc1ncsc1-c1ccc(CNC(=O)[C@@H]2C[C@@H](O)CN2C(=O)[C@@H](NC(=O)CCOCCOc2ccc(Nc3ncc(C(F)(F)F)c(NCc4cccc(N(C)S(C)(=O)=O)c4)n3)cc2)C(C)(C)C)cc1 is less than 700 ng/mL?
Result: yes (1)

Then there is this molecule:
Query: Is it true that concentration at 0.5 h reported for CN(c1cccc(CNc2nc(Nc3ccc(OCCCOCCC(=O)NCCOc4cccc5c4C(=O)N(C4CCC(=O)NC4=O)C5=O)cc3)ncc2C(F)(F)F)c1)S(C)(=O)=O (centres unmarked) is less than 700 ng/mL?
Result: yes (1)

---

# test-protocol: Pharmacokinetics of intraperitoneal or intravenous injection in CD1 mice
# Assay type: in vivo
# condition: male, CD1, mouse, plasma, ip, 10 mg/kg; read-out: T ½ (h) IP (converted)
Entries and their measured half-life follow.
Return type: number; implicit unit h.

Below are worked cases with known answers.
Query: Using the record for Cc1ncsc1-c1ccc(CNC(=O)[C@@H]2C[C@@H](O)CN2C(=O)[C@@H](NC(=O)CCOCCCOc2ccc(Nc3ncc(C(F)(F)F)c(NCc4cccc(N(C)S(C)(=O)=O)c4)n3)cc2)C(C)(C)C)cc1 , report its half-life.
Result: 1.87

Query: Using the record for Cc1ncsc1-c1ccc(CNC(=O)[C@@H]2C[C@@H](O)CN2C(=O)[C@@H](NC(=O)COCCCOc2ccc(Nc3ncc(C(F)(F)F)c(NCc4cccc(N(C)S(C)(=O)=O)c4)n3)cc2)C(C)(C)C)cc1 , report its half-life.
Result: 1.22

Query: Using the record for Cc1ncsc1-c1ccc(CNC(=O)[C@@H]2C[C@@H](O)CN2C(=O)[C@@H](NC(=O)COCCOc2ccc(Nc3ncc(C(F)(F)F)c(NCc4cccc(N(C)S(C)(=O)=O)c4)n3)cc2)C(C)(C)C)cc1 , report its half-life.
Result: 2.15

Next up:
Query: Using the record for Cc1ncsc1-c1ccc(CNC(=O)[C@@H]2C[C@@H](O)CN2C(=O)[C@@H](NC(=O)CCOCCOc2ccc(Nc3ncc(C(F)(F)F)c(NCc4cccc(N(C)S(C)(=O)=O)c4)n3)cc2)C(C)(C)C)cc1 , report its half-life.
Result: 1.46

---

Entries and their measured concentration at 4 h follow.
# test-protocol: Pharmacokinetics of intraperitoneal or intravenous injection in CD1 mice
# Assay type: in vivo
# condition: male, CD1, mouse, plasma, iv, 1 mg/kg, IV 1.0 mg/kg, CD1 mice plasma, 4 h; read-out: Conc. (ng/mL) Mouse 2
Return type: number; implicit unit ng/mL.

Query: Using the record for Cc1ncsc1-c1ccc(CNC(=O)[C@@H]2C[C@@H](O)CN2C(=O)[C@@H](NC(=O)COCCOc2ccc(Nc3ncc(C(F)(F)F)c(NCc4cccc(N(C)S(C)(=O)=O)c4)n3)cc2)C(C)(C)C)cc1 [Compound 100] , report its concentration at 4 h.
Result: 4.11

Query: Using the record for Cc1ncsc1-c1ccc(CNC(=O)[C@@H]2C[C@@H](O)CN2C(=O)[C@@H](NC(=O)COCCCOc2ccc(Nc3ncc(C(F)(F)F)c(NCc4cccc(N(C)S(C)(=O)=O)c4)n3)cc2)C(C)(C)C)cc1 [Compound 101] , report its concentration at 4 h.
Result: 4.59

Next up:
Query: Using the record for Cc1ncsc1-c1ccc(CNC(=O)[C@@H]2C[C@@H](O)CN2C(=O)[C@@H](NC(=O)CCOCCCOc2ccc(Nc3ncc(C(F)(F)F)c(NCc4cccc(N(C)S(C)(=O)=O)c4)n3)cc2)C(C)(C)C)cc1 [Compound 103] , report its concentration at 4 h.
Result: 12.9

---

# test-protocol: Pharmacokinetics of intraperitoneal or intravenous injection in CD1 mice
# Format: in vivo
# condition: male, CD1, mouse, plasma, ip, 10 mg/kg, IP 10 mg/kg, CD1 mice plasma, 4 h; read-out: Mean
readout-kind: concentration at 4 h (ng/mL)
Return type: number; implicit unit ng/mL.

Query: Using the record for Cc1ncsc1-c1ccc(CNC(=O)[C@@H]2C[C@@H](O)CN2C(=O)[C@@H](NC(=O)CCOCCOc2ccc(Nc3ncc(C(F)(F)F)c(NCc4cccc(N(C)S(C)(=O)=O)c4)n3)cc2)C(C)(C)C)cc1 [Compound 102] , report its concentration at 4 h.
Result: 549

Next up:
Query: Using the record for Cc1ncsc1-c1ccc(CNC(=O)[C@@H]2C[C@@H](O)CN2C(=O)[C@@H](NC(=O)CCOCCCOc2ccc(Nc3ncc(C(F)(F)F)c(NCc4cccc(N(C)S(C)(=O)=O)c4)n3)cc2)C(C)(C)C)cc1 [Compound 103] , report its concentration at 4 h.
Result: 1080

---

# test-protocol: Pharmacokinetics of intraperitoneal or intravenous injection in CD1 mice
# Assay type: in vivo
# condition: male, CD1, mouse, plasma, ip, 10 mg/kg, IP 10 mg/kg, CD1 mice plasma, 1 h; read-out: Conc. (ng/mL) Mouse 1
readout-kind: concentration at 1 h
Number first, unit second.

Query: Using the record for Cc1ncsc1-c1ccc(CNC(=O)[C@@H]2C[C@@H](O)CN2C(=O)[C@@H](NC(=O)COCCCOc2ccc(Nc3ncc(C(F)(F)F)c(NCc4cccc(N(C)S(C)(=O)=O)c4)n3)cc2)C(C)(C)C)cc1 , report its concentration at 1 h.
Result: 1040 ng/mL

Query: Using the record for Cc1ncsc1-c1ccc(CNC(=O)[C@@H]2C[C@@H](O)CN2C(=O)[C@@H](NC(=O)CCOCCCOc2ccc(Nc3ncc(C(F)(F)F)c(NCc4cccc(N(C)S(C)(=O)=O)c4)n3)cc2)C(C)(C)C)cc1 , report its concentration at 1 h.
Result: 2010 ng/mL

Query: Using the record for Cc1ncsc1-c1ccc(CNC(=O)[C@@H]2C[C@@H](O)CN2C(=O)[C@@H](NC(=O)COCCOc2ccc(Nc3ncc(C(F)(F)F)c(NCc4cccc(N(C)S(C)(=O)=O)c4)n3)cc2)C(C)(C)C)cc1 , report its concentration at 1 h.
Result: 648 ng/mL

Query: Using the record for CN(c1cccc(CNc2nc(Nc3ccc(OCCCOCCC(=O)NCCOc4cccc5c4C(=O)N(C4CCC(=O)NC4=O)C5=O)cc3)ncc2C(F)(F)F)c1)S(C)(=O)=O (centres unmarked) , report its concentration at 1 h.
Result: 64.7 ng/mL

Query: Using the record for Cc1ncsc1-c1ccc(CNC(=O)[C@@H]2C[C@@H](O)CN2C(=O)[C@@H](NC(=O)CCOCCOc2ccc(Nc3ncc(C(F)(F)F)c(NCc4cccc(N(C)S(C)(=O)=O)c4)n3)cc2)C(C)(C)C)cc1 , report its concentration at 1 h.
Result: 2540 ng/mL

---

# test-protocol: Pharmacokinetics of intraperitoneal or intravenous injection in CD1 mice
# Assay type: in vivo
# condition: male, CD1, mouse, plasma, iv, 1 mg/kg, IV 1.0 mg/kg, CD1 mice plasma, 0.083 h; read-out: Conc. (ng/mL) Mouse 1
Entries and their measured concentration at 0.083 h follow.
Return type: number; implicit unit ng/mL.

Below are worked cases with known answers.
Query: Using the record for Cc1ncsc1-c1ccc(CNC(=O)[C@@H]2C[C@@H](O)CN2C(=O)[C@@H](NC(=O)COCCCOc2ccc(Nc3ncc(C(F)(F)F)c(NCc4cccc(N(C)S(C)(=O)=O)c4)n3)cc2)C(C)(C)C)cc1 [Compound 101] , report its concentration at 0.083 h.
Result: 356

Query: Using the record for Cc1ncsc1-c1ccc(CNC(=O)[C@@H]2C[C@@H](O)CN2C(=O)[C@@H](NC(=O)CCOCCOc2ccc(Nc3ncc(C(F)(F)F)c(NCc4cccc(N(C)S(C)(=O)=O)c4)n3)cc2)C(C)(C)C)cc1 [Compound 102] , report its concentration at 0.083 h.
Result: 249

Next up:
Query: Using the record for Cc1ncsc1-c1ccc(CNC(=O)[C@@H]2C[C@@H](O)CN2C(=O)[C@@H](NC(=O)CCOCCCOc2ccc(Nc3ncc(C(F)(F)F)c(NCc4cccc(N(C)S(C)(=O)=O)c4)n3)cc2)C(C)(C)C)cc1 [Compound 103] , report its concentration at 0.083 h.
Result: 1660
